Tested on: H9c2;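 note: cell death induced by hydrogen peroxide oxidative stress; compound pretreatment for 60 min then peroxide exposure for 2 h; potency is for protecting the cells against peroxide damage rather than for killing them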;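 note: confirmatory concentration-response retest of ultra-high-throughput screening hits for modulation of myocardial damage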
Assay: cells
Assay type: functional, cell-based
Conditions: Rattus norvegicus, H9c2, Myocardium
Calls of active or inactive are those of the source. Cut-off read from the data, not from the text of the source: active = IC50 of 30 µM or less and inactive = more.
Task for the reader: assign each of the following molecules its reported IC50.

[[record]]
molecule = "CCCN1C(=O)/C(=C/c2nc(O)c3ccccc3n2)c2ccccc21"
reported_value = "> 79 µM (inactive)"

[[record]]
molecule = "CC(OC(=O)Cn1[nH]c(=O)c2ccccc2c1=O)C(=O)NC1(C#N)CCCCC1 (stereo not given)"
reported_value = "> 79 µM (inactive)"

[[record]]
molecule = "O=C(NCC(=O)N(Cc1cccs1)C(C(=O)NC1CCCC1)c1ccco1)c1cccs1 (stereo not given)"
reported_value = "> 79 µM (inactive)"

[[record]]
molecule = "O=C(COc1cccc2c1CCNC2=O)Nc1ccc(F)cc1"
reported_value = "37.2 µM (inactive)"


// IC50 value for Brc1ccc(-c2ccc(/C=N/Nc3nc(N4CCOCC4)nc(N4CCOCC4)n3)o2)cc1 : > 79 µM (inactive)
